- TARGET_OF_ASSAY: RIOK2 (human)
- TEST_DETAILS: KINOMEscan competition binding
- MEASUREMENT_CONDITIONS: compound 10.0 µM
Could you please report measured kinase still bound, per cent of control for the items listed next?
Your answer should be a plain number; it is taken to be in %.

Req: Item Nc1ccc(-c2ccc3ncc4ccc(=O)n(-c5cccc(C(F)(F)F)c5)c4c3c2)cn1 : provide kinase still bound, per cent of control
Resp: 70

Req: Item N#Cc1c(NC(=O)c2cccc3ccccc23)sc2c1CCCC2 : provide kinase still bound, per cent of control
Resp: 91

Req: Item OCCCNc1cc(-c2ccnc(Nc3cccc(Cl)c3)n2)ccn1 : provide kinase still bound, per cent of control
Resp: 100

Req: Item COc1cc(C(=O)NC2CCN(C)CC2)ccc1Nc1ncc2c(n1)N(C1CCCC1)C(C)CC(=O)N2C (stereo unspecified) : provide kinase still bound, per cent of control
Resp: 100

Req: Item Cc1cc([C@@H](C)Nc2ccccc2C(=O)O)c2nc(N3CCOCC3)cc(=O)n2c1 : provide kinase still bound, per cent of control
Resp: 54

Req: Item CCN1CCN(Cc2ccc(Nc3ncc4c(n3)N(C)c3ccccc3C(=O)N4C)cc2C(F)(F)F)CC1 : provide kinase still bound, per cent of control
Resp: 100

----------
- TARGET_OF_ASSAY: UniProt Q9H4B4
- Sequence (Q9H4B4 whole entry, looked up): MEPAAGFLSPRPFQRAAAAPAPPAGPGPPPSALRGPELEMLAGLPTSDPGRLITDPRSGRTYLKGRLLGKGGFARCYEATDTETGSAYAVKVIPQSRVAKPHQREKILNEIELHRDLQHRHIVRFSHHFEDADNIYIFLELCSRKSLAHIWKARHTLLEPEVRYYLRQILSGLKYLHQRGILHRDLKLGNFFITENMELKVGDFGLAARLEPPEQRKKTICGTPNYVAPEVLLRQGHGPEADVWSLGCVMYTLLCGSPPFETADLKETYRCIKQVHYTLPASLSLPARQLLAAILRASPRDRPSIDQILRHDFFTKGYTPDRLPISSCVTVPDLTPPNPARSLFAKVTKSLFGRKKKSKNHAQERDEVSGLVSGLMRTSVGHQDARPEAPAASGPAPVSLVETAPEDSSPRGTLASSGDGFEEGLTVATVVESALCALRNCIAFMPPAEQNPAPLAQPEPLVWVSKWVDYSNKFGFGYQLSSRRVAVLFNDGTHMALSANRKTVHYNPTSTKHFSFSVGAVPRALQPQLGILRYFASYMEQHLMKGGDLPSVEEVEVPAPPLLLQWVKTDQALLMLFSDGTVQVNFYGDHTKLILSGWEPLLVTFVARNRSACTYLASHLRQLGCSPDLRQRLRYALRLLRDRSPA
- TEST_DETAILS: KINOMEscan competition binding
- MEASUREMENT_CONDITIONS: compound 10.0 µM
TEST_READOUT: kinase still bound, per cent of control (%)
Your answer should be a plain number; it is taken to be in %.

Req: Item C=CC(=O)Nc1cccc(Oc2nc(Nc3ccc(N4CCN(C)CC4)cc3OC)ncc2Cl)c1 : provide kinase still bound, per cent of control
Resp: 100

Req: Item C=CC(=O)Nc1cc(NC(=O)c2ccc(C)c(NC(=O)c3ccno3)c2)cc(C(F)(F)F)c1 : provide kinase still bound, per cent of control
Resp: 100

Req: Item Nc1ccc(-c2ccc3ncc4ccc(=O)n(-c5cccc(C(F)(F)F)c5)c4c3c2)cn1 : provide kinase still bound, per cent of control
Resp: 94

Req: Item CN(C)C/C=C/C(=O)Nc1cccc(Nc2ncc3c(n2)N(C)c2ccccc2C(=O)N3C)c1 : provide kinase still bound, per cent of control
Resp: 72

Req: Item CCCS(=O)(=O)Nc1ccc(F)c(C(=O)c2c[nH]c3ncc(-c4ccc(Cl)cc4)cc23)c1F : provide kinase still bound, per cent of control
Resp: 93

Req: Item CCN1CCN(Cc2ccc(Nc3ncc4c(n3)N(C)c3ccccc3C(=O)N4C)cc2C(F)(F)F)CC1 : provide kinase still bound, per cent of control
Resp: 100

Req: Item Cc1ccc(NC(=O)c2cccc(C(C)(C)C#N)c2)cc1Nc1ccc2ncn(C)c(=O)c2c1 : provide kinase still bound, per cent of control
Resp: 100

----------
- TARGET_OF_ASSAY: RPS6KA4 KD2 (human) (UniProt O75676)
- Sequence (O75676 whole entry, looked up): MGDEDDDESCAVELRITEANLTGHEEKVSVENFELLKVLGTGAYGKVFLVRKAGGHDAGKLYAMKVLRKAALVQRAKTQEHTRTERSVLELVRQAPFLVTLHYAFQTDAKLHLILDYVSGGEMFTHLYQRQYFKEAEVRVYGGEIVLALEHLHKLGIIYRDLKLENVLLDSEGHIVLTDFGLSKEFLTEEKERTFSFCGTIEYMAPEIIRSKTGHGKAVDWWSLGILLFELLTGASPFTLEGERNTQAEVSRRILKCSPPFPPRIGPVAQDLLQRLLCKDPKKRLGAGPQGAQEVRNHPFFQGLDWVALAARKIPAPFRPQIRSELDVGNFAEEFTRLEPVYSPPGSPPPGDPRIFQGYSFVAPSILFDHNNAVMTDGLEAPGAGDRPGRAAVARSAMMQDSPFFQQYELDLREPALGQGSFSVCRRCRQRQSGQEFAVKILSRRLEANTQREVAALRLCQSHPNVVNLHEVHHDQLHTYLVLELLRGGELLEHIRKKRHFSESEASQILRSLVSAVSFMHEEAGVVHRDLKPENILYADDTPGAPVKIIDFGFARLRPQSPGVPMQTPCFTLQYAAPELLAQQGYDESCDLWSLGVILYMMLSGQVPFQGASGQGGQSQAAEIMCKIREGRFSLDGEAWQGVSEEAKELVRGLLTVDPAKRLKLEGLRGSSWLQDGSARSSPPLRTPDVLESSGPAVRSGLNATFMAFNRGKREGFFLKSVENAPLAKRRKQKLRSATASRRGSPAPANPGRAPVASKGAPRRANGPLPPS
- TEST_DETAILS: KINOMEscan competition binding
- MEASUREMENT_CONDITIONS: compound 10.0 µM
TEST_READOUT: kinase still bound, per cent of control (%)
Your answer should be a plain number; it is taken to be in %.

Req: Item C=CC(=O)Nc1cccc(Oc2nc(Nc3ccc(N4CCN(C)CC4)cc3OC)ncc2Cl)c1 : provide kinase still bound, per cent of control
Resp: 16

Req: Item Cn1c(=O)n(-c2ccc(C(C)(C)C#N)cc2)c2c3cc(-c4cnc5ccccc5c4)ccc3ncc21 : provide kinase still bound, per cent of control
Resp: 100

Req: Item Cc1ccc(NC(=O)c2cccc(C(C)(C)C#N)c2)cc1Nc1ccc2ncn(C)c(=O)c2c1 : provide kinase still bound, per cent of control
Resp: 94

Req: Item C=CC(=O)Nc1cc(NC(=O)c2ccc(C)c(NC(=O)c3ccno3)c2)cc(C(F)(F)F)c1 : provide kinase still bound, per cent of control
Resp: 94

Req: Item O=C(O)c1ccc(Nc2ncc3c(n2)-c2ccc(Cl)cc2C(c2c(F)cccc2F)=NC3)cc1 : provide kinase still bound, per cent of control
Resp: 100

Req: Item Cc1ccc(C(=O)Nc2cccc(C(F)(F)F)c2)cc1Nc1cncc(C(N)=O)c1 : provide kinase still bound, per cent of control
Resp: 100

Req: Item Cc1ccc2nc(NCCN)c3ncc(C)n3c2c1 : provide kinase still bound, per cent of control
Resp: 15

Req: Item CCN1CCN(Cc2ccc(Nc3ncc4c(n3)N(C)c3ccccc3C(=O)N4C)cc2C(F)(F)F)CC1 : provide kinase still bound, per cent of control
Resp: 100

Req: Item N#Cc1c(NC(=O)c2cccc3ccccc23)sc2c1CCCC2 : provide kinase still bound, per cent of control
Resp: 100

----------
- TARGET_OF_ASSAY: MAPK11 (human) (UniProt Q15759)
- Sequence (Q15759 whole entry, looked up): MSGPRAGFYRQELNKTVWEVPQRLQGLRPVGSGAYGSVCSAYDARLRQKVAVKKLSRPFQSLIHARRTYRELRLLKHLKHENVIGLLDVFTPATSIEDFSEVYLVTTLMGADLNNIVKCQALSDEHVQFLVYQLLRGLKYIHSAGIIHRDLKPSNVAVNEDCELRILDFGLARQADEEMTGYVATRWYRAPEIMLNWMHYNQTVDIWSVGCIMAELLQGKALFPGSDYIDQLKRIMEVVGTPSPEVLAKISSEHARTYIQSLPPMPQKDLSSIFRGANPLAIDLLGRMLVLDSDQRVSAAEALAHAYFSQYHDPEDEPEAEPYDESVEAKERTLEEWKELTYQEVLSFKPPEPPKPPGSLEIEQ
- TEST_DETAILS: KINOMEscan competition binding
- MEASUREMENT_CONDITIONS: compound 10.0 µM
TEST_READOUT: kinase still bound, per cent of control (%)
Your answer should be a plain number; it is taken to be in %.

Req: Item CCOc1cc2ncc(C#N)c(Nc3ccc(OCc4ccccn4)c(Cl)c3)c2cc1NC(=O)/C=C/CN(C)C : provide kinase still bound, per cent of control
Resp: 100

Req: Item CCCS(=O)(=O)Nc1ccc(F)c(C(=O)c2c[nH]c3ncc(-c4ccc(Cl)cc4)cc23)c1F : provide kinase still bound, per cent of control
Resp: 29

Req: Item COc1cc(N2CCN(C)CC2)ccc1Nc1nc(N)c(C(=O)c2c(Cl)cccc2Cl)s1 : provide kinase still bound, per cent of control
Resp: 77

Req: Item CC[C@@H]1C(=O)N(C)c2cnc(Nc3ccc(C(=O)NC4CCN(C)CC4)cc3OC)nc2N1C1CCCC1 : provide kinase still bound, per cent of control
Resp: 100

Req: Item Nc1ccc(-c2ccc3ncc4ccc(=O)n(-c5cccc(C(F)(F)F)c5)c4c3c2)cn1 : provide kinase still bound, per cent of control
Resp: 83

Req: Item COc1cc(C(=O)NC2CCN(C)CC2)ccc1Nc1ncc2c(n1)N(C1CCCC1)CCC(=O)N2C(C)C : provide kinase still bound, per cent of control
Resp: 100

Req: Item CCN1CCN(Cc2ccc(Nc3ncc4c(n3)N(C)c3ccccc3C(=O)N4C)cc2C(F)(F)F)CC1 : provide kinase still bound, per cent of control
Resp: 82

Req: Item Cc1ccc(NC(=O)c2cccc(C(C)(C)C#N)c2)cc1Nc1ccc2ncn(C)c(=O)c2c1 : provide kinase still bound, per cent of control
Resp: 0

Req: Item Cc1cc([C@@H](C)Nc2ccccc2C(=O)O)c2nc(N3CCOCC3)cc(=O)n2c1 : provide kinase still bound, per cent of control
Resp: 91

Req: Item O=C(NC1CC1)c1cccc(-c2ccc3c(NC(=O)C4CC4)n[nH]c3c2)c1 : provide kinase still bound, per cent of control
Resp: 2.6

Req: Item N#Cc1c(NC(=O)c2cccc3ccccc23)sc2c1CCCC2 : provide kinase still bound, per cent of control
Resp: 100

Req: Item O=C(NOC[C@H](O)CO)c1ccc(F)c(F)c1Nc1ccc(I)cc1F : provide kinase still bound, per cent of control
Resp: 100

Req: Item O=C(O)c1ccc(Nc2ncc3c(n2)-c2ccc(Cl)cc2C(c2c(F)cccc2F)=NC3)cc1 : provide kinase still bound, per cent of control
Resp: 99

Req: Item Cn1c(=O)n(-c2ccc(C(C)(C)C#N)cc2)c2c3cc(-c4cnc5ccccc5c4)ccc3ncc21 : provide kinase still bound, per cent of control
Resp: 100

Req: Item C=CC(=O)Nc1cc(NC(=O)c2ccc(C)c(NC(=O)c3ccno3)c2)cc(C(F)(F)F)c1 : provide kinase still bound, per cent of control
Resp: 4.8

Req: Item COc1cc(C(=O)NC2CCN(C)CC2)ccc1Nc1ncc2c(n1)N(C1CCCC1)C(C)CC(=O)N2C (stereo unspecified) : provide kinase still bound, per cent of control
Resp: 100

----------
- TARGET_OF_ASSAY: PTK2B (human) (UniProt Q14289)
- Sequence (Q14289 whole entry, looked up): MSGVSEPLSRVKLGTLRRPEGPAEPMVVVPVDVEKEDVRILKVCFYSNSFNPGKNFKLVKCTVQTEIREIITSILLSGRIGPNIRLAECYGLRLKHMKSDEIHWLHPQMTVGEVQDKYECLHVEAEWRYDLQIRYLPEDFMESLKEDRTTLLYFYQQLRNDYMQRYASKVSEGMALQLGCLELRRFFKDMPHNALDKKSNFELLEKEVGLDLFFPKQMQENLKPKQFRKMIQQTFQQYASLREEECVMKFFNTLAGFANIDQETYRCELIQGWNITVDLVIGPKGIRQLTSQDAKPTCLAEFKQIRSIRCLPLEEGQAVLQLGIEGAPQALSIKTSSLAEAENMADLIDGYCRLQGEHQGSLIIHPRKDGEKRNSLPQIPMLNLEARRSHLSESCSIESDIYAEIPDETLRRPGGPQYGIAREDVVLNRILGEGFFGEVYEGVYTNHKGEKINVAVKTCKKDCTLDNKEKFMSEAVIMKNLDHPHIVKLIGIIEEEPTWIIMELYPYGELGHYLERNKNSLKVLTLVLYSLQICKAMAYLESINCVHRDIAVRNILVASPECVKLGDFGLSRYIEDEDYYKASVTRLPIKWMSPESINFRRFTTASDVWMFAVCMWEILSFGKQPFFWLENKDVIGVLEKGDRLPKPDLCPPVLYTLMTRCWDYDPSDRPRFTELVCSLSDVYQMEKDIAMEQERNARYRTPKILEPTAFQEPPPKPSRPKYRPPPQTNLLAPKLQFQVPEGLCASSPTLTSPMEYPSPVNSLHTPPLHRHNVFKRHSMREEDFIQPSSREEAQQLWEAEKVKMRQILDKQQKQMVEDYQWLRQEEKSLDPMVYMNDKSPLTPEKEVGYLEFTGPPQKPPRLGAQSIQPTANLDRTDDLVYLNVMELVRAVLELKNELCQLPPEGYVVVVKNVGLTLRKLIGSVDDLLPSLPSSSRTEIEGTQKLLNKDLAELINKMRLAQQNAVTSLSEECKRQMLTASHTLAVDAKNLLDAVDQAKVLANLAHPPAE
- TEST_DETAILS: KINOMEscan competition binding
- MEASUREMENT_CONDITIONS: compound 10.0 µM
Could you please report measured kinase still bound, per cent of control for the items listed next?
Your answer should be a plain number; it is taken to be in %.

Req: Item O=C(NOC[C@H](O)CO)c1ccc(F)c(F)c1Nc1ccc(I)cc1F : provide kinase still bound, per cent of control
Resp: 98

Req: Item Cc1cc([C@@H](C)Nc2ccccc2C(=O)O)c2nc(N3CCOCC3)cc(=O)n2c1 : provide kinase still bound, per cent of control
Resp: 100

Req: Item O=C1Nc2ccc(I)cc2/C1=C/c1cc(Br)c(O)c(Br)c1 : provide kinase still bound, per cent of control
Resp: 81

Req: Item N#Cc1c(NC(=O)c2cccc3ccccc23)sc2c1CCCC2 : provide kinase still bound, per cent of control
Resp: 79

Req: Item Cn1c(=O)n(-c2ccc(C(C)(C)C#N)cc2)c2c3cc(-c4cnc5ccccc5c4)ccc3ncc21 : provide kinase still bound, per cent of control
Resp: 100

Req: Item CCCS(=O)(=O)Nc1ccc(F)c(C(=O)c2c[nH]c3ncc(-c4ccc(Cl)cc4)cc23)c1F : provide kinase still bound, per cent of control
Resp: 100
